- ASSAY TARGET: human Bradykinin B1 receptor (Homo sapiens)
- Construct: host or cells: CHO-K1
- Sequence (P46663 whole entry): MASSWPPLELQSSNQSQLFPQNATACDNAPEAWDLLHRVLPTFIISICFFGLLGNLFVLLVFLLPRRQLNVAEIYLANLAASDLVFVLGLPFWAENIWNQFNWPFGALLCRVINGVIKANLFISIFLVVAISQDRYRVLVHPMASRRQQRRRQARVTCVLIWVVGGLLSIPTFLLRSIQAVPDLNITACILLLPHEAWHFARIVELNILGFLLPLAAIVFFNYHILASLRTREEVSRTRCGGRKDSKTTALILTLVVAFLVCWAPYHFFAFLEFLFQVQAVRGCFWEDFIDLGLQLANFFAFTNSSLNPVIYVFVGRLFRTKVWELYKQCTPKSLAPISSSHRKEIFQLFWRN
- METHOD SUMMARY: Calcium flux Assay (FLIPR) with recombinant CHO-K1 cells expressing human Bradykinin B1 receptor, in presence (hB1 IC50) or absence (hB1 free IC50) of 0.1% BSA
- Assay type: cell-based
- CONDITION CONTEXT: in absence of 0.1% BSA, read-out: hB1 free IC50
METRIC: IC50 (nM)

O=C(Nc1ccc(-c2ccc(C(F)(F)F)nc2)c(-c2nnn[nH]2)c1)C1(c2ccc(OC(F)(F)F)cc2)CC1    165
CCOc1ccc(-c2ccc(NC(=O)C3(c4ccc(F)cc4F)CC3)cc2-c2nnn[nH]2)cn1    24.5
Cc1cc(Cl)ccc1C1(C(=O)Nc2ccc(-c3ccc(C(F)(F)F)nc3)c(-c3nnn[nH]3)c2)CC1    135
CCOc1ccc(-c2ccc(NC(=O)C3(c4cccc(CC)c4)CC3)cc2-c2nnn[nH]2)cn1    10.4
COc1cc(-c2ccc(NC(=O)C3(c4ccc(C(F)(F)F)cc4F)CC3)cc2-c2nnn[nH]2)cc(C(F)(F)F)c1    217
O=C(Nc1ccc(-c2ccc(C(F)F)nc2)c(-c2nnn[nH]2)c1)C1(c2cccc(Cl)c2)CC1    18.8
O=C(Nc1ccc(-n2cnc(C3CCC3)n2)c(-c2nnn[nH]2)c1)C1(c2cccc(Cl)c2)CC1    44.8
Cc1ccc(C2(C(=O)Nc3ccc(-n4cc(C(F)(F)F)nc4C)c(-c4nnn[nH]4)c3)CC2)c(F)c1    1130
CC(C)(C)c1cn(-c2ccc(NC(=O)C3(c4ccc(OC(F)(F)F)cc4F)CC3)cc2-c2nnn[nH]2)cn1    6.36
O=C(Nc1ccc(-c2cc3ccccc3s2)c(-c2nnn[nH]2)c1)C1(c2cccc(Cl)c2)CC1    142

P. CO[C@H]1CC[C@H](c2ccc(NC(=O)C3(c4cccc(Cl)c4)CC3)cc2-c2nnn[nH]2)CC1
Q. O=C(Nc1cc(-c2nnn[nH]2)c(-c2ccc(C(F)(F)F)nc2)cc1O)C1(c2ccc(F)c(Cl)c2)CC1
Enquiry: Pick the one with the larger IC50: P vs Q Mark your selection by writing its label.
Return: P

P. COc1ccc(-c2ccc(NC(=O)C3(c4ccc(C(F)(F)F)cc4F)CC3)cc2-c2nnn[nH]2)cc1C(F)(F)F
Q. CS(=O)(=O)Nc1ccc(-c2ccc(NC(=O)C3(c4cccc(Cl)c4)CC3)cc2-c2nnn[nH]2)cc1
Enquiry: Dear colleague, could you let me know whether P or Q has the lower recorded IC50? Thanks. Mark your selection by writing its label.
Return: P
(P: 53 nM, Q: 162 nM)

* * *

- ASSAY TARGET: human Bradykinin B1 receptor (Homo sapiens)
- Construct: host or cells: CHO-K1
- METHOD SUMMARY: Calcium flux Assay (FLIPR) with recombinant CHO-K1 cells expressing human Bradykinin B1 receptor, in presence (hB1 IC50) or absence (hB1 free IC50) of 0.1% BSA
- Format: cell-based
- CONDITION CONTEXT: in absence of 0.1% BSA, read-out: hB1 free IC50
pIC50: −log10 of the molar value.
METRIC: pIC50

As a guide, the following entries are already answered.
Cc1ccc(C2(C(=O)Nc3ccc(-n4ccc(CC(F)(F)F)n4)c(-c4nnn[nH]4)c3)CC2)c(F)c1    7.48
CC(F)(F)c1ccc(-c2ccc(NC(=O)C3(c4ccc(C(F)(F)F)cc4)CC3)cc2-c2nnn[nH]2)cn1    8.50
O=C(Nc1ccc(-c2ccc(N3CCOCC3)nc2)c(-c2nnn[nH]2)c1)C1(c2cccc(Cl)c2)CC1    7.07
CCOc1ccc(-c2ccc(NC(=O)C3(c4cc(F)ccc4C)CC3)cc2-c2nnn[nH]2)cn1    6.51
CCOc1ccc(-c2c(F)cc(NC(=O)C3(c4cccc(Cl)c4)CC3)cc2-c2nnn[nH]2)cn1    8.54

I. Cc1cc(-c2c(F)cc(NC(=O)C3(c4cccc(Cl)c4)CC3)cc2-c2nnn[nH]2)ccn1
II. CCOc1ccc(-c2ccc(NC(=O)C3(c4cccc(Cl)c4)CC3)cc2-c2nnn[nH]2)cc1OC
Enquiry: Dear colleague, could you let me know whether I or II has the lower recorded pIC50? Thanks. Mark your selection by writing its label.
Return: I
(I: 7.80, II: 8.54)
